Tested target: recombinant human TFPI (tissue factor pathway inhibitor) (human, UniProt P10646 29-304)
Test description: cell-based or functional assay
# A405, TF/FVIIa/FX complex assay (FX 5 nM), Ab 12.5 nM annotations
Test readout: A405, TF/FVIIa/FX complex assay (FX 5 nM), Ab 12.5 nM

# Binder, Observed
records = [
    ("clone 8 (antibody, V domains shown) VH: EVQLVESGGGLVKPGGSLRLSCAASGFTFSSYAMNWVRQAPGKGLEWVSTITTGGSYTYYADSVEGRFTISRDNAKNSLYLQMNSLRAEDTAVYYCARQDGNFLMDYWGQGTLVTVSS VL: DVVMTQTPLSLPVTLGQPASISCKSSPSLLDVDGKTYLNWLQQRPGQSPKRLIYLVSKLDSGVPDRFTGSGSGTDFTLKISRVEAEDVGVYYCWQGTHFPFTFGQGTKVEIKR", 0.088),
    ("clone 1023 (antibody, V domains shown, scFv on yeast at selection; human IgG4/kappa IgG as purified) VH: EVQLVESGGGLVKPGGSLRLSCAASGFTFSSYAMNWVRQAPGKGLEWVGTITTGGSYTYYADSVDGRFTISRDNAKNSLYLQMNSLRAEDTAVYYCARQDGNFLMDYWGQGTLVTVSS VL: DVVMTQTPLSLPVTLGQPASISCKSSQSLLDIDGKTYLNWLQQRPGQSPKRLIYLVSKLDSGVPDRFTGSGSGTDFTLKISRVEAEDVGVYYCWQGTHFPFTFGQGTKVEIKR", 0.079),
    ("clone 3 (antibody, V domains shown) VH: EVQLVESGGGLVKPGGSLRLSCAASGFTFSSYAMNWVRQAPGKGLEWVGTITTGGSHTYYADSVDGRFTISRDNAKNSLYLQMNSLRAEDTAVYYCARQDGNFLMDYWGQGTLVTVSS VL: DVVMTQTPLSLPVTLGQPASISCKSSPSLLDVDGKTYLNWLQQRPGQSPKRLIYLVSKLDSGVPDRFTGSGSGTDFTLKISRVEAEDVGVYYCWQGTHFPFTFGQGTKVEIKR", 0.141),
    ("clone 2 (antibody, V domains shown) VH: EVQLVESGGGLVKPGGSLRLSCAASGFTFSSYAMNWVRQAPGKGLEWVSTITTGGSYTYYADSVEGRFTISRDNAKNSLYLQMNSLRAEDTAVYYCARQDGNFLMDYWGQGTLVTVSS VL: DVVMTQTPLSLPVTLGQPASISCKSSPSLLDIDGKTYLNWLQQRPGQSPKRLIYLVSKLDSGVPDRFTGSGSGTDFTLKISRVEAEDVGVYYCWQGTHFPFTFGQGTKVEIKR", 0.083),
]
